All values here come from patent US6849612B2.

Listed here: items and their measured IC50.
System: ELAM-1
ASSAY SUMMARY: ELISA of ELAM-1 expression in TNF-stimulated HUVEC
Assay type: cell-based, human
CONDITION SET: HUVEC, TNF-α; read-out: IC50 for inhibition of ELAM-1 expression (asterisk)
Protocol: Primary human umbilical vein endothelial (HUVEC) cells, passage 2 to 5, were plated in 96-well plates and allowed to reach confluence. Cells were washed three times with Opti-MEM (GIBCO, Grand Island N.Y.). […] ELAM-1 expression was determined by ELISA. […] Cells were washed three times with D-PBS and the bound ELAM-1 antibody detected with biotinylated goat anti-mouse secondary antibody followed by β-galactosidase-conjugated streptavidin as described in Example 1. […]
Strand notation (5' to 3'): a small letter for the sugar, then the base; units joined by * are phosphorothioate-linked, units joined directly phosphodiester-linked; [ ] holds rarer units or linkages, { } end groups; capitals alone tell only the bases. d = 2'-deoxy (DNA)
MEASUREMENT NAME: IC50

- SUBSTANCE: "ISIS 4756: phosphorothioate, human ELAM-1 I/E 177-196, SEQ ID NO 54, CCAAAGTGAGAGCTGAGAGA (antisense dC*dC*dA*dA*dA*dG*dT*dG*dA*dG*dA*dG*dC*dT*dG*dA*dG*dA*dG*dA)"
  RESULT: "≤ 50 nM"
- SUBSTANCE: "ISIS 4719: phosphorothioate, human ELAM-1 3′-UTR 2993-3012, SEQ ID NO 58, ACGTTTGGCCTCATGGAAGT (antisense dA*dC*dG*dT*dT*dT*dG*dG*dC*dC*dT*dC*dA*dT*dG*dG*dA*dA*dG*dT)"
  RESULT: "≤ 50 nM"
